# studySystem: extracellular domain protein of human MOG to which FLAG-Fc is added at the C-terminus (hMOG-FLAG-Fc) (human)
# Sequence (chain, as listed by the source limits assumed): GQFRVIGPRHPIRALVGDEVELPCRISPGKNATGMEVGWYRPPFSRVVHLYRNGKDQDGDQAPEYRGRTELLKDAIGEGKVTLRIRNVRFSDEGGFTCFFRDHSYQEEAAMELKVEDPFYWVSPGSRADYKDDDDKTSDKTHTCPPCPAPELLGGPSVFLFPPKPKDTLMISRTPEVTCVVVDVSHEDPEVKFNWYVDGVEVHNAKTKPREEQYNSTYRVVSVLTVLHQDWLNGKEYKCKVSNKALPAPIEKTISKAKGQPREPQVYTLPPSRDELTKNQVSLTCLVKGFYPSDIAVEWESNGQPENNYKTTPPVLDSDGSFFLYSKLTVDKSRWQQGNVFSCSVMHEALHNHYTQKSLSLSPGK
# method: phage ELISA
experimentalEndpoint: binding result

MOG352 (scFv phage clone similar to MOG310 antibody) (scFv) scFv: EVQLVQSGAEVKKPGSSVKVSCKASGGTFSRYAINWVRQAPGQGLEWMGGIIPMFSTVNYAQKFQGRVTITADESTSTAYMELSSLRSEDTAVYYCARDWAVAGMGFDYWGQGTLVTVSSGGGGSGGRASGGGGSAIQMTQSPSSVSASVGDRVTITCRASQGISSWLAWYQHKPGKAPKSLIYAASSLQSGVPSRFSGSGSGTDFTLTISSLQPEDFATYYCQQYNSYPLTFGGGTKVDIK	binds
